Here, each record is paired with measured inhibition data.
biological target: Protein-tyrosine kinase 2-beta (Homo sapiens); conditions: at 1 µM
Use % as the unit, but write only the number.

Worked examples, 3 compounds total:
> print(dat)
                            smilesstructure                              systemtested  measvalue
1  O=C(O[C@H]1CN[C@H](C#Cc2cc3ncnc(Nc4ccc5c(ccn5Cc5cc(F)ccc5F)c4)c3s2)C1)N1CCOCC1  Protein-tyrosine kinase 2-beta (Homo sapiens)       5.45
2  CCOc1ccc2c(-c3ccnc(Nc4cc(OC)cc(C(F)(F)F)c4)n3)cnn2n1  Protein-tyrosine kinase 2-beta (Homo sapiens)       21.2
3  CCN1CCC(C(=O)Nc2n[nH]c3nnc(-c4cccc(F)c4F)cc23)CC1  Protein-tyrosine kinase 2-beta (Homo sapiens)       1.39

Consider the compound Cc1ccc(-c2cc3c(NC(=O)C4CC4)ncnc3o2)cc1 and give its measured inhibition.
10.2

Consider the compound O=C(O[C@H]1CN[C@H](C#Cc2cc3ncnc(Nc4ccc5c(cnn5Cc5ccccc5)c4)c3s2)C1)N1CCOCC1 and give its measured inhibition.
-1.26

----------
target: Tyrosine-protein kinase Fer (Homo sapiens) (UniProt P16591); conditions: at 1 µM
Sequence (P16591 whole entry, looked up): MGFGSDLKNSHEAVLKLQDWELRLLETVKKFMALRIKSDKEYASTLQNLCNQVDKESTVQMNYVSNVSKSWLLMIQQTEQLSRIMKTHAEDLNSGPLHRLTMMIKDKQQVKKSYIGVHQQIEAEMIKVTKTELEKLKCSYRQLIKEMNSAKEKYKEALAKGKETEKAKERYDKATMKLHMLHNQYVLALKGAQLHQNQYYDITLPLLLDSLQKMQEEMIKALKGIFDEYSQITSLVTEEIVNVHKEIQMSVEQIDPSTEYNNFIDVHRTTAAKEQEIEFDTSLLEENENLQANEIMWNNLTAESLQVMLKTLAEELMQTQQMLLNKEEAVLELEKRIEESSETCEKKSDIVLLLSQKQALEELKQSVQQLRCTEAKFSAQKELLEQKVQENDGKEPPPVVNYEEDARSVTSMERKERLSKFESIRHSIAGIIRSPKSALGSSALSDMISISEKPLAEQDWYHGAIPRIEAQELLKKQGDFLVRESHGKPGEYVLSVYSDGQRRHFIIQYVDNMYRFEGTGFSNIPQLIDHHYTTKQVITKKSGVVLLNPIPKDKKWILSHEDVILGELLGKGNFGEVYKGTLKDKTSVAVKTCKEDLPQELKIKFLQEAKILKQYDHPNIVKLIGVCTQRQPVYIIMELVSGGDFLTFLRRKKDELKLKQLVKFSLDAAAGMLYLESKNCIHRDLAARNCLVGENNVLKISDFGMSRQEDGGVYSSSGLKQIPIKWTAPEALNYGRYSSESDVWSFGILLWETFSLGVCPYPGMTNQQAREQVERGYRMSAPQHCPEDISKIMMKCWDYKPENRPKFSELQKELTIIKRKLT
Description: GSK_PKIS: FER mean inhibition at 1 uM [Nanosyn]
Here, each record is paired with measured inhibition data.
Use % as the unit, but write only the number.

Worked examples, 6 molecules total:
> print(dat)
                            smilesstructure   parameter  measvalue
1  NS(=O)(=O)c1ccc(N/N=C2\C(=O)Nc3cccc(CCc4ccncc4)c32)cc1  inhibition       5.66
2      Cc1cc(O)cc(C)c1/C=C/c1cncc(C(N)=O)c1  inhibition       1.87
3  COc1ccc(-c2nn3ncccc3c2-c2ccnc(Nc3ccc(F)c(F)c3)n2)cc1  inhibition       7.64
4  CCN1CCC(C(=O)Nc2n[nH]c3nnc(-c4cccc(F)c4F)cc23)CC1  inhibition       1.37
5    Cc1ccc(-c2cc3c(NC(=O)C4CC4)ncnc3o2)cc1  inhibition       6.82
6  COC(=O)Nc1nc2cc(Oc3ccc(NC(=O)Nc4ccccc4)cc3)ccc2[nH]1  inhibition       3.19

# returns recorded inhibition (system: Tyrosine-protein kinase Fer (Homo sapiens) (UniProt P16591)) for Cn1c(-c2nonc2N)nc2cnccc21
6.7

# returns recorded inhibition (system: Tyrosine-protein kinase Fer (Homo sapiens) (UniProt P16591)) for CCCNc1cccc(-n2ncc3c(N/N=C/c4ccncc4)ncnc32)c1
9.15

# returns recorded inhibition (system: Tyrosine-protein kinase Fer (Homo sapiens) (UniProt P16591)) for COc1cc(Nc2ncc(-c3ccccc3)o2)cc(OC)c1
3.14

# returns recorded inhibition (system: Tyrosine-protein kinase Fer (Homo sapiens) (UniProt P16591)) for COc1cc2c(cc1Nc1nc(Nc3cccc(F)c3C(N)=O)c3cc[nH]c3n1)N(C(=O)CN1CCN(C(C)C)CC1)CC2
53.2

----------
target: Macrophage-stimulating protein receptor (Homo sapiens) (UniProt Q04912); conditions: at 1 µM
Sequence (Q04912 25-304 limits assumed): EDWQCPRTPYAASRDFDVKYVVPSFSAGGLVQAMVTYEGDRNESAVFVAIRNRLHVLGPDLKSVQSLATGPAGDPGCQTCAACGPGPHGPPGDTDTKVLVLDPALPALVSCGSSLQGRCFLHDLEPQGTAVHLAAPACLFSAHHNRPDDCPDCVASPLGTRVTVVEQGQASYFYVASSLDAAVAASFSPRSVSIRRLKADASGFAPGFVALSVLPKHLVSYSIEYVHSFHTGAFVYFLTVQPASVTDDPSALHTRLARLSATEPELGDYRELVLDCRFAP
Sequence (Q04912 310-1400 limits assumed): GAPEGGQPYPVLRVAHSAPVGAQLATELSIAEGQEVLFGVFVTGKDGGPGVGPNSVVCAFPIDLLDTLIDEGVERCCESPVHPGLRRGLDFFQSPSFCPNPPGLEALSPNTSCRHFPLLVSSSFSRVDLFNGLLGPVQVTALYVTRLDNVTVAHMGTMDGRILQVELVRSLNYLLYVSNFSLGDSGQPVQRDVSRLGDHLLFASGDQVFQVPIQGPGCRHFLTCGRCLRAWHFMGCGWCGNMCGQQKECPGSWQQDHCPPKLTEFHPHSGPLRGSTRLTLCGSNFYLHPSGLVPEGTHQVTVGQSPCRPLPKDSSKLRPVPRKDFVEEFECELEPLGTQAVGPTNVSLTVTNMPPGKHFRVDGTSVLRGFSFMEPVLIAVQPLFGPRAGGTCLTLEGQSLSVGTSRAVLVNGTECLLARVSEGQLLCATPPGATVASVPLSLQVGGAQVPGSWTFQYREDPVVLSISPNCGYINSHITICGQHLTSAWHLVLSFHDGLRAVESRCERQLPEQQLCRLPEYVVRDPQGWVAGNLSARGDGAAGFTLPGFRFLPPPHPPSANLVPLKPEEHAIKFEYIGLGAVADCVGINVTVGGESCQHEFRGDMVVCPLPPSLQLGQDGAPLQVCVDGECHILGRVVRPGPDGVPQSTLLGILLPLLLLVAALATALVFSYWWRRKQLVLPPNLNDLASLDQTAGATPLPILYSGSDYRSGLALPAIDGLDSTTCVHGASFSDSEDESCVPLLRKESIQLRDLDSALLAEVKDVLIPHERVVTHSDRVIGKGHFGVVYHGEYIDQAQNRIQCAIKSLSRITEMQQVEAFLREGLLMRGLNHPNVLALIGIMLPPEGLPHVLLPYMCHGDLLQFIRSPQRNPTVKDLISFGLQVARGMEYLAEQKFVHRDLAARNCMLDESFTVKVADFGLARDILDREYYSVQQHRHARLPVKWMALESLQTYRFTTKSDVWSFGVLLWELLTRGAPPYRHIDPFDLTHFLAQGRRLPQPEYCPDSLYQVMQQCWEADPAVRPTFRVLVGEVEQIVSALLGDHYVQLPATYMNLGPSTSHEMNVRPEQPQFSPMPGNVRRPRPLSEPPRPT
Description: GSK_PKIS: RON mean inhibition at 1 uM [Nanosyn]
parameter: inhibition (%)
Use % as the unit, but write only the number.

> print(dat)
                            smilesstructure  measurementunits  measvalue
1          N#Cc1cccc(Nc2ncc(-c3ccccc3)o2)c1                 %      -1.06
2  COc1ccc2ncn(-c3cc(O[C@H](C)c4ccccc4C(F)(F)F)c(C(N)=O)s3)c2c1                 %       0.45
3  NS(=O)(=O)c1ccc(N/N=C2\C(=O)Nc3ccc(C(=O)NCc4ccncc4)cc32)cc1                 %       7.54
4  Cc1c2ccc(N(C)c3ccnc(Nc4cccc(S(N)(=O)=O)c4)n3)cc2nn1C                 %       9.61
5  OCCCNc1nccc(-c2c(-c3ccc(F)cc3)nn3cc(C(F)(F)F)ccc23)n1                 %       1.65

Consider the molecule COc1ccc(Nc2ncc(-c3ccccc3)o2)cc1OC and give its measured inhibition.
5.46

Consider the molecule c1cnn2ncc(-c3ccnc(NCCCN4CCOCC4)n3)c2c1 and give its measured inhibition.
0.88

Consider the molecule O=C(Nc1n[nH]c2nnc(-c3cccnc3)cc12)C1CC1 and give its measured inhibition.
-3.95

Consider the molecule CC(C)c1ccc(-c2cc(-c3c[nH]nc3-c3ccccn3)ccn2)cc1 and give its measured inhibition.
3.62

Consider the molecule Fc1ccc(Nc2nccc(-c3c(-c4ccc(C(F)(F)F)cc4)nn4ncccc34)n2)cc1F and give its measured inhibition.
4.5

----------
biological target: Vascular endothelial growth factor receptor 3 (Homo sapiens); details: at 1 µM;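 further: mean FLT4 inhibition, averaged across replicates, from the GSK PKIS kinase inhibitor screen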
Here, each record is paired with measured inhibition data.
Use % as the unit, but write only the number.

Worked examples, 5 compounds total:
> print(dat)
                            smilesstructure                              systemtested  measurementunits  measvalue
1    Cc1ccc(-c2cc3c(NC(=O)C4CC4)ncnc3o2)cc1  Vascular endothelial growth factor receptor 3 (Homo sapiens)                 %       9.25
2  COc1cccc(-n2ncc3c(N/N=C/c4ccc(C(=O)NCCN(C)C)cc4)ncnc32)c1  Vascular endothelial growth factor receptor 3 (Homo sapiens)                 %       53.5
3  Cc1cc(O)cc(C)c1/C=C/c1cncc(C(=O)OC(C)(C)C)c1  Vascular endothelial growth factor receptor 3 (Homo sapiens)                 %       1.34
4  NS(=O)(=O)c1cccc(N/C=C2\C(=O)Nc3ccccc32)c1  Vascular endothelial growth factor receptor 3 (Homo sapiens)                 %       14.8
5  CS(=O)(=O)CCNCc1ccc(-c2ccc3ncnc(Nc4ccc(OCc5cccc(C(F)(F)F)c5)cc4)c3c2)o1  Vascular endothelial growth factor receptor 3 (Homo sapiens)                 %       15.4

Consider the compound COc1cc(N2CCN(C(C)C)CC2)ccc1Nc1nc(Nc2cccc(F)c2C(=O)O)c2cc[nH]c2n1 and give its measured inhibition.
-0.47

Consider the compound Cc1nnc(-c2cccc(-c3ccc(C(=O)NCC4CC4)cc3)c2)o1 and give its measured inhibition.
-1.03

Consider the compound CCN1CCC(C(=O)Nc2n[nH]c3nnc(-c4cccc(F)c4F)cc23)CC1 and give its measured inhibition.
0.68

Consider the compound CN(c1ccc(NC(=O)NCCN2CCOCC2)cc1)c1ccnc(Nc2ccc(CS(C)(=O)=O)cc2)n1 and give its measured inhibition.
20.6

Consider the compound CN1CCC(C(=O)Nc2n[nH]c3nc(-c4ccc(O)cc4)c(Br)cc23)CC1 and give its measured inhibition.
2.2

----------
target: Tyrosine-protein kinase Blk (Homo sapiens) (UniProt P51451); settings: at 1 µM
Sequence (P51451 2-505 limits assumed): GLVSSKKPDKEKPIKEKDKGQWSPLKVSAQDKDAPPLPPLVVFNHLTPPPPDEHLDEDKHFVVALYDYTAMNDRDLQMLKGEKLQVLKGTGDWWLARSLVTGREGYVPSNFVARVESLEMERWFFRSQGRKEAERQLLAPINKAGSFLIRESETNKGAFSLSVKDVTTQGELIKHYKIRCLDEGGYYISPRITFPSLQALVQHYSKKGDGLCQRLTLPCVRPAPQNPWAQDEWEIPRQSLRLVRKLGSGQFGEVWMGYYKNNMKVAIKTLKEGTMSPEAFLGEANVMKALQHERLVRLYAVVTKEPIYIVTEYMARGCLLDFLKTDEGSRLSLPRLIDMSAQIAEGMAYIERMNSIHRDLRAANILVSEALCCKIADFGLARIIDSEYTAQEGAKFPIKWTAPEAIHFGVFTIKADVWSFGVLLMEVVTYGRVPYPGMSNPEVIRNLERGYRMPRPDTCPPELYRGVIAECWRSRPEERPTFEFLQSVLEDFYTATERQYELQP
parameter: inhibition (%)
Use % as the unit, but write only the number.

# returns recorded inhibition (system: Tyrosine-protein kinase Blk (Homo sapiens) (UniProt P51451)) for CCN1CCC(C(=O)Nc2n[nH]c3nnc(-c4cccc(F)c4F)cc23)CC1
2.33

# returns recorded inhibition (system: Tyrosine-protein kinase Blk (Homo sapiens) (UniProt P51451)) for Cc1cc(O)cc(C)c1/C=C/c1cncc(C(=O)OC(C)(C)C)c1
21.7

# returns recorded inhibition (system: Tyrosine-protein kinase Blk (Homo sapiens) (UniProt P51451)) for COC(=O)Nc1nc2ccc(Oc3ccc(NC(=O)Nc4cc(C(F)(F)F)ccc4F)cc3)cc2s1
3.2

# returns recorded inhibition (system: Tyrosine-protein kinase Blk (Homo sapiens) (UniProt P51451)) for CS(=O)(=O)CCNCc1ccc(-c2ccc3ncnc(Nc4ccc(OCc5cccc(C(F)(F)F)c5)cc4)c3c2)o1;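 further: mean percent inhibition of BLK kinase activity, from GSK PKIS kinase inhibitor set profiling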
6.32

----------
Here, each record is paired with measured inhibition data.
target: Ribosomal protein S6 kinase alpha-4 (Homo sapiens); conditions: at 1 µM
Use % as the unit, but write only the number.

> print(dat)
                                   compound  measvalue
1  NS(=O)(=O)c1cccc(N/C=C2\C(=O)Nc3ccccc32)c1       18.6

# returns recorded inhibition (system: Ribosomal protein S6 kinase alpha-4 (Homo sapiens)) for O=C(Nc1n[nH]c2nnc(-c3cccnc3)cc12)C1CC1
0.76

# returns recorded inhibition (system: Ribosomal protein S6 kinase alpha-4 (Homo sapiens)) for CC1=C(C(=O)Nc2ccc3[nH]nc(C)c3c2)C(c2ccc(C(F)(F)F)cc2)CC(=O)N1 (configuration not stated)
11.5

# returns recorded inhibition (system: Ribosomal protein S6 kinase alpha-4 (Homo sapiens)) for COc1ccccc1-c1cc(/C=C2\C(=O)Nc3ncc(Br)cc32)cc(Br)c1O
6.3

# returns recorded inhibition (system: Ribosomal protein S6 kinase alpha-4 (Homo sapiens)) for CS(=O)(=O)Nc1ccc(-c2ccc3c(NC(=O)C4CC4)n[nH]c3c2)cc1;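 further: mean inhibition of MSK2, GSK PKIS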
3.37

----------
molecular target: Protein-tyrosine kinase 2-beta (Homo sapiens); conditions: at 0.1 µM
parameter: inhibition

# returns recorded inhibition (system: Protein-tyrosine kinase 2-beta (Homo sapiens)) for Cc1nnc(-c2cccc(-c3ccc(C(=O)NCC4CC4)cc3)c2)o1
12.3%
